combination Emax values, listed per item
System: KM-H2 (Hodgkin's Lymphoma)
method: combination Emax (second highest fraction inhibited in the dose matrix, 72 h); higher = more inhibition; extreme values may be limits of the assay

Below, 2 molecules whose answers are already recorded.
>>> experimental_value("CC(=O)c1c(C)c2cnc(Nc3ccc(N4CCNCC4)cn3)nc2n(C2CCCC2)c1=O [Palbociclib] + Cn1cnc2c(F)c(Nc3ccc(Br)cc3Cl)c(C(=O)NOCCO)cc21 [Selumetinib] (first compound max 10 µM, 7x7, partner max 10 µM)")
0.47
>>> experimental_value("COc1cccc2c1C(=O)c1c(O)c3c(c(O)c1C2=O)C[C@@](O)(C(=O)CO)C[C@@H]3O[C@H]1C[C@H](N)[C@H](O)[C@H](C)O1 [Doxorubicin] + Cc1cc2ncnn2cc1Nc1ncc2c(n1)n(C1CCOCC1)c(=O)n2C [AZD7648] (first compound max 1 µM, 7x7, partner max 10 µM)")
0.791

Entry under review: CC1(C)CCC(CN2CCN(c3ccc(C(=O)NS(=O)(=O)c4ccc(NCC5CCOCC5)c([N+](=O)[O-])c4)c(Oc4cnc5[nH]ccc5c4)c3)CC2)=C(c2ccc(Cl)cc2)C1 [Venetoclax] + C=CCn1c(=O)c2cnc(Nc3ccc(N4CCN(C)CC4)cc3)nc2n1-c1cccc(C(C)(C)O)n1 [AZD1775] (first compound max 1 µM, partner max 1 µM) . Reported combination Emax?
0.974

Sourced from the supplement of paper PMC11061612
